Target Desc: human GABABR1aR2a (Homo sapiens, UniProt O75899+Q9UBS5)
Construct: expressed in transfected cells
Sequence (Q9UBS5 15-961 limits assumed): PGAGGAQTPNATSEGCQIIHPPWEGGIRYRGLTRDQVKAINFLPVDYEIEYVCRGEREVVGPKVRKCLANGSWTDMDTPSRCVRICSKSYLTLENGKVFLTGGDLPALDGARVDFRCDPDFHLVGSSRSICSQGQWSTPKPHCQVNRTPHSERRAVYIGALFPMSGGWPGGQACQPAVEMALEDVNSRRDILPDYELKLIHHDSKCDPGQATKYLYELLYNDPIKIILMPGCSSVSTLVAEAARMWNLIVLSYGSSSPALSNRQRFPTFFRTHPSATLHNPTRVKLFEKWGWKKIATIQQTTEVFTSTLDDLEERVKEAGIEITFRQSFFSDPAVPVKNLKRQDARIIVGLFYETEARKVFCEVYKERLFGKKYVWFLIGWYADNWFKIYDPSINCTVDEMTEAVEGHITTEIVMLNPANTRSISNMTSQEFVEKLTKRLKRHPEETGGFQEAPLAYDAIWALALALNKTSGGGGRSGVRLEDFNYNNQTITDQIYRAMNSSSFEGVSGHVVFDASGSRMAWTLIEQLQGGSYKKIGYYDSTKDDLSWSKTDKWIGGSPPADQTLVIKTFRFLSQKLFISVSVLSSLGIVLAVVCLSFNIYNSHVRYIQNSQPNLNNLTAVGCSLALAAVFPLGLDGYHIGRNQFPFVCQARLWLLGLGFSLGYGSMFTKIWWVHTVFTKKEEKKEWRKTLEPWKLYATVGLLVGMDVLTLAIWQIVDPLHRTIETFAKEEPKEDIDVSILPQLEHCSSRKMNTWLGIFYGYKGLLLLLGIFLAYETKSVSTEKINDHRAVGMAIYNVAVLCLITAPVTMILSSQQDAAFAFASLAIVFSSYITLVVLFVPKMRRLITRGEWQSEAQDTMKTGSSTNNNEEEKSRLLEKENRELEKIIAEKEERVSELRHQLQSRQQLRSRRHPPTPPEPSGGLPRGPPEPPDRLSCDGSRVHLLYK
Sequence (O75899 42-941): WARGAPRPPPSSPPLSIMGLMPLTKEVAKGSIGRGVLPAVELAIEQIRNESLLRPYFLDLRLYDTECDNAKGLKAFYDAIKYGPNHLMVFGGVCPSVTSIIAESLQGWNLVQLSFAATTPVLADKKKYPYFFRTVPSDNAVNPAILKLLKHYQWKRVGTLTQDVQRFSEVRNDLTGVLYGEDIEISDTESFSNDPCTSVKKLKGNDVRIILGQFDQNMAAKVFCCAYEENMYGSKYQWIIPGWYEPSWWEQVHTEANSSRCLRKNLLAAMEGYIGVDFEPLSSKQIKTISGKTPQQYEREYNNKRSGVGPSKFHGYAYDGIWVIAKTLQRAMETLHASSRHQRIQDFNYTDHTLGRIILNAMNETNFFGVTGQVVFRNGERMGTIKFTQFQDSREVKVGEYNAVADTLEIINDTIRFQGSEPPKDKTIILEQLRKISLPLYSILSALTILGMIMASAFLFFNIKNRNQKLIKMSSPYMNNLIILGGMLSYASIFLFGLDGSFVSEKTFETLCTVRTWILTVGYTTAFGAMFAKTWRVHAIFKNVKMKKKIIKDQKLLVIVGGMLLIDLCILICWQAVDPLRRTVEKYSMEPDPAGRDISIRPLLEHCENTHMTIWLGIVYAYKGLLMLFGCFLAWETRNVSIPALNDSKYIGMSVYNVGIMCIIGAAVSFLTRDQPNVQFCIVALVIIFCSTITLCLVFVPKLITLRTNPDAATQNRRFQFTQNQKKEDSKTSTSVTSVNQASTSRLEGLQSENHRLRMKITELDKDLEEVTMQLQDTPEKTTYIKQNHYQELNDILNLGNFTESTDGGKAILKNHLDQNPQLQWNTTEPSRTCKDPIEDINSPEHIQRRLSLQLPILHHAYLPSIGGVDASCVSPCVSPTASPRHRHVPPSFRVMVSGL
Experiment Notes: Intracellular Ca2+ mobilization assay in CHO-GABABR1aR2a-Gα16 cell (enhancer concentration-response at 10 nM GABA)
Type: cell-based
Assay Context: enhancer potency in presence of 10 nM GABA (EC10); CHO cells expressing human GABABR1aR2a and Gα16
Quantity: EC50 (µM)
Answer with a number only, understood to be in µM.

Sample records with EC50:
# Molecule, Unit Name, EC50
measured = [
    ("Cc1cc(C(C)(C)C)c2c(c1)C(O)(C(F)(F)F)C(=O)O2 (racemic)", "µM", 0.36),
    ("COC(=O)C(O)(c1cc(C(C)(C)C)cc(C(C)(C)C)c1)C(F)(F)F (racemic)", "µM", 2.1),
]

stdin: What value of EC50 on human GABABR1aR2a (Homo sapiens, UniProt O75899+Q9UBS5) does CC(C)(C)c1cc(C(C)(C)C)c(O)c(C(O)(C(=O)O)C(F)(F)F)c1 (racemic) have?
stdout: 0.32
